Target: PI3Kα (complex of human p110α and human p85α) (Homo sapiens (Human), UniProt P42336)
Sequence (P42336 whole entry, the tested form may be a part): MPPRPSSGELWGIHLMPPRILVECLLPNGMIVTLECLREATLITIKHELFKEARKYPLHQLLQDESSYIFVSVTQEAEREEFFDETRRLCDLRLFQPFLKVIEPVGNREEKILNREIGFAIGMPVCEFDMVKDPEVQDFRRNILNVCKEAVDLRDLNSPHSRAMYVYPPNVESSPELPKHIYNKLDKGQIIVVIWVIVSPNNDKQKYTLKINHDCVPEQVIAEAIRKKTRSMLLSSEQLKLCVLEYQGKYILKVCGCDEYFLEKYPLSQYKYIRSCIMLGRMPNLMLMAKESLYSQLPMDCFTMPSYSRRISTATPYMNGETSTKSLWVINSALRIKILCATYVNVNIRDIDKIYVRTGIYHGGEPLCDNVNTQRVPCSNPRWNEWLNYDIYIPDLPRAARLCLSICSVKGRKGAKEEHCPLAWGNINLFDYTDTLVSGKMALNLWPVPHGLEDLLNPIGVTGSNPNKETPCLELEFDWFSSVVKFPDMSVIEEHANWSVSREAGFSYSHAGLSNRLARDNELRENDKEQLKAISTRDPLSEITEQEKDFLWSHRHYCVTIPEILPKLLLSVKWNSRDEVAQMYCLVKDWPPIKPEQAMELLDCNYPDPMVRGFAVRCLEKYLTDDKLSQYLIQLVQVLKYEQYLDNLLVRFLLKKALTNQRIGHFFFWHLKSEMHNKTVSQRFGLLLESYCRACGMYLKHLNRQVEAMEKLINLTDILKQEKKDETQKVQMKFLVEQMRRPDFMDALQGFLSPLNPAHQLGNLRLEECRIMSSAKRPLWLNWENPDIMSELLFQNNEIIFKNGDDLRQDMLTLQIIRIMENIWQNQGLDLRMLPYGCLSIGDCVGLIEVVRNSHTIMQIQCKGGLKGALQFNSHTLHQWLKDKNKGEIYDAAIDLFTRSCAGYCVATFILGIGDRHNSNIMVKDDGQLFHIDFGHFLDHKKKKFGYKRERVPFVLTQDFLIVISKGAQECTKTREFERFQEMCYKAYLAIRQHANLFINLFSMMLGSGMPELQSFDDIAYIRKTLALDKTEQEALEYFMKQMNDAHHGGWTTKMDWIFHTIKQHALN
Sequence (P27986 whole entry partner, the tested form may be a part): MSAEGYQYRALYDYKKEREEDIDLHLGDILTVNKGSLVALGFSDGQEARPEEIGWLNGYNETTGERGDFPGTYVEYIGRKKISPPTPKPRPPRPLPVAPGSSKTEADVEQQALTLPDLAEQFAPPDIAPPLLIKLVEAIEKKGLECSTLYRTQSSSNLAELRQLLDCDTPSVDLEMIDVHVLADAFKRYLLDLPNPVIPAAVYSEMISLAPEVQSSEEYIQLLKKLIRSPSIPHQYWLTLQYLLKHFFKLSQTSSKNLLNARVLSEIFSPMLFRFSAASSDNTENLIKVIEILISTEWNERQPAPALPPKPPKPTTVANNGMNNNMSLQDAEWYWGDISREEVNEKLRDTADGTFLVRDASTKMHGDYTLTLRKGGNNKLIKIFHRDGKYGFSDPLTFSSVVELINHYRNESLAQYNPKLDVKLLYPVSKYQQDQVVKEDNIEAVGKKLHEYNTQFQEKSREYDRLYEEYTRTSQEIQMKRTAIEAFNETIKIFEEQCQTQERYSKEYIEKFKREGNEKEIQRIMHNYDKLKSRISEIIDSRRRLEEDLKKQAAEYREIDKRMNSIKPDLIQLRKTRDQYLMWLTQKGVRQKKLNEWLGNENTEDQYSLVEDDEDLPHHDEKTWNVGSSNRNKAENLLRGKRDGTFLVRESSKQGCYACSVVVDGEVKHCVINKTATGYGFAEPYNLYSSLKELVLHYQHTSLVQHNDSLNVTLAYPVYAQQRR
Assay: PI3Kα kinase assay (HTRF-based PI3K inhibition assay);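 also: PIP3 product detected by HTRF, reading resonance energy transfer from Europium-labeled anti-GST antibody to Streptavidin-APC, as displacement of biotinylated PIP3 tracer from the GST-PH domain complex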
Details: 10 μM ATP, 10 μM PIP2, 20 min at 22° C.; read-out: average IC50 in the PI3K alpha biochemical assay
quantity kind: IC50

Check out these entries, answers already filled in.
1. COc1c(OC[C@H](O)CN2C[C@@H](C)O[C@@H](C)C2)ccc2c1N=C(NC(=O)c1cccnc1C)N1CCN=C21    < 10 nM
2. COc1c(OC[C@H](O)CN2CCC2)ccc2c1N=C(NC(=O)c1cccnc1C)N1CCN=C21    10 to 50 nM
3. COc1c(OC[C@H](O)CN(C(C)C)C(C)C)ccc2c1N=C(NC(=O)c1cncs1)N1CCN=C21    < 10 nM
4. COc1c(OC[C@H](O)CN2CCCC2)ccc2c1N=C(NC(=O)c1cccnc1)N1CCN=C21    < 10 nM

Below is a list of compounds. For each, state its recorded IC50.
1. COc1c(OC[C@H](O)CN2CCOCC2)ccc2c1N=C(NC(=O)c1cnc3[nH]cnc3c1)N1CCN=C21
2. COc1c(OC[C@H](O)CN(C)C)ccc2c1N=C(NC(=O)c1cnc(N)nc1)N1CCN=C21

[out]
1: < 10 nM; 2: < 10 nM
